Reference source: BigSolDB 2.1

- CONDITIONS USED: in methanol, 308.15 K
ASSAY ENDPOINT: solubility (mole fraction)
The reply should be a number, written without any unit.

stdin: // returns reported solubility (mole fraction) for input "Brc1cn[nH]c1"
stdout: 0.402

====

- CONDITIONS USED: in water, 310.65 K
ASSAY ENDPOINT: solubility (mole fraction)
The answer should be written as a number, with no unit following it.

stdin: Which solubility (mole fraction) is listed for "Brc1cn[nH]c1" ?
stdout: 0.00848

====

- CONDITIONS USED: in ethanol, 285.65 K
ASSAY ENDPOINT: solubility (mole fraction)
Enter the number alone.

stdin: Recorded solubility (mole fraction) for "Brc1cn[nH]c1" , please?
stdout: 0.275

====

- CONDITIONS USED: in ethanol, 303.15 K
ASSAY ENDPOINT: solubility (mole fraction)
# respond with the number and nothing more

stdin: I have this compound here, "Brc1cn[nH]c1" , and I need its recorded solubility (mole fraction).
stdout: 0.372

====

- CONDITIONS USED: in ethanol, 298.15 K
ASSAY ENDPOINT: solubility (mole fraction)

stdin: Look at this molecule and give its reported solubility (mole fraction). "Brc1cn[nH]c1"
stdout: 0.339

====

- CONDITIONS USED: in methanol, 298.15 K
ASSAY ENDPOINT: solubility (mole fraction)
Respond numerically, and do not add a unit to the figure.

stdin: Name the recorded solubility (mole fraction) for "Brc1cn[nH]c1" .
stdout: 0.312

====

- CONDITIONS USED: in ethanol, 318.15 K
ASSAY ENDPOINT: solubility (mole fraction)
Response field accepts a number only; no unit should be typed.

stdin: Returns the measured solubility (mole fraction) for the input molecule. Input: "Brc1cn[nH]c1"
stdout: 0.506

====

- CONDITIONS USED: in methanol, 293.15 K
ASSAY ENDPOINT: solubility (mole fraction)
# output: bare number, no unit

stdin: I have this compound here, "Brc1cn[nH]c1" , and I need its recorded solubility (mole fraction).
stdout: 0.27

====

- CONDITIONS USED: in ethanol, 305.65 K
ASSAY ENDPOINT: solubility (mole fraction)
Please reply with the number alone, leaving off any unit.

stdin: Record request: solubility (mole fraction) value, item "Brc1cn[nH]c1"
stdout: 0.39

====

- CONDITIONS USED: in methanol, 290.65 K
ASSAY ENDPOINT: solubility (mole fraction)
Response field accepts a number only; no unit should be typed.

stdin: // lookup solubility (mole fraction) for "Brc1cn[nH]c1"
stdout: 0.252

====

- CONDITIONS USED: in ethanol, 288.15 K
ASSAY ENDPOINT: solubility (mole fraction)
Hey, just send me the number, nothing else.

stdin: Endpoint output: solubility (mole fraction) of "Brc1cn[nH]c1" . Value?
stdout: 0.287

====

- CONDITIONS USED: in water, 290.65 K
ASSAY ENDPOINT: solubility (mole fraction)

stdin: Dear colleague, I am looking for the recorded solubility (mole fraction) of the following molecule: "Brc1cn[nH]c1"
stdout: 0.00562
